Tested on: SK-MEL-5 melanoma
assay-details: NCI tumour cell line growth inhibition, 48 h
Provide the recorded TGI for the entries that follow.

Prompt: Look up TGI with SK-MEL-5 melanoma for this compound: "Cc1nc2ccc(S(=O)(=O)NS(=O)(=O)c3ccc(-c4ccccc4)cc3)cc2c(=O)n1NS(=O)(=O)c1ccc(-c2ccccc2)cc1"
Completion: > 100 µM

Prompt: Look up TGI with SK-MEL-5 melanoma for this compound: "Cc1ccc(/C=C2\NC(=S)NC2=O)cc1"
Completion: > 100 µM

Prompt: Look up TGI with SK-MEL-5 melanoma for this compound: "Nc1c(C(=O)c2cccc(C#CCN3CCCCC3)c2)cnn1-c1ccc(F)cc1"
Completion: > 25 µM

Prompt: Look up TGI with SK-MEL-5 melanoma for this compound: "Nc1nc2ccc(Sc3ccc4nc(N)[nH]c(=O)c4c3)cc2c(=O)[nH]1"
Completion: > 100 µM

Prompt: Look up TGI with SK-MEL-5 melanoma for this compound: "COc1cc(OC)c2sc(-c3ccc(-n4cncc4-c4ccc(OC)c(OC)c4)cc3)nc2c1"
Completion: > 100 µM

Prompt: Look up TGI with SK-MEL-5 melanoma for this compound: "c1ccc2c(c1)NCc1cc3ccccc3nc1O2"
Completion: > 100 µM

---

System: HCC-2998 colon
assay-details: NCI tumour cell line growth inhibition, 48 h
Provide the recorded TGI for the entries that follow.

Prompt: Dear colleague, I am looking for the recorded TGI of the following compound: "CCOC(=O)c1ccc(NC(=O)NC2=NCCS2)cc1"
Completion: > 76.7 µM

Prompt: Dear colleague, I am looking for the recorded TGI of the following compound: "O=c1nc2ccc([N+](=O)[O-])cc2[n+]([O-])[nH]1"
Completion: > 100 µM

Prompt: Dear colleague, I am looking for the recorded TGI of the following compound: O=C1C[C@@]23CCC4(CC2CCC[C@H]3O1)OCCO4 (some centres undefined)
Completion: > 100 µM

Prompt: Dear colleague, I am looking for the recorded TGI of the following compound: "C1CCCCC2(CCCCCCCCC3(CCC1)SCCS3)SCCS2"
Completion: > 100 µM

---

Provide the recorded TGI for the entries that follow.
System: NCI/ADR-RES ovarian
assay-details: NCI tumour cell line growth inhibition, 48 h

Prompt: Dear colleague, I am looking for the recorded TGI of the following compound: "N#Cc1c2ccc([N+](=O)[O-])cc2c(=O)n2c1[nH]c1ccc(C(F)(F)F)cc12"
Completion: > 100 µM

Prompt: Dear colleague, I am looking for the recorded TGI of the following compound: COc1cc(F)ccc1-c1cc(Nc2cc(CS(C)(=N)=O)ccn2)ncc1F (stereo not given)
Completion: > 36.6 µM

Prompt: Dear colleague, I am looking for the recorded TGI of the following compound: "O=C1/C(=C\c2ccco2)Oc2ccccc21"
Completion: > 100 µM

Prompt: Dear colleague, I am looking for the recorded TGI of the following compound: "O=C1CCC[C@H]2O[C@@H](COC(=O)c3ccccc3)C[C@H]2O1"
Completion: > 100 µM

Prompt: Dear colleague, I am looking for the recorded TGI of the following compound: "COc1ccc2cc(CNCCCCCCCCNCc3ccc4cc(OC)ccc4c3)ccc2c1"
Completion: > 100 µM

---

Tested on: RPMI-8226 leukemia
assay-details: NCI tumour cell line growth inhibition, 48 h
Provide the recorded TGI for the entries that follow.

Prompt: Look up TGI with RPMI-8226 leukemia for this compound: "O=C(Cn1cc(Br)c(=O)[nH]c1=O)c1ccc(-c2ccccc2)cc1"
Completion: > 100 µM

Prompt: Look up TGI with RPMI-8226 leukemia for this compound: "NC(=O)CSc1c2cc(O)ccc2nc2ccc(O)cc12"
Completion: > 10 µM

Prompt: Look up TGI with RPMI-8226 leukemia for this compound: "COc1ccc(/C=C(\NC(=O)c2ccccc2)c2nc3ccccc3[nH]2)cc1OC"
Completion: > 100 µM

Prompt: Look up TGI with RPMI-8226 leukemia for this compound: O=C1CCC2(c3ccccc3)Nc3ccccc3N12 (centres undefined)
Completion: > 100 µM

Prompt: Look up TGI with RPMI-8226 leukemia for this compound: "Cc1ccc(Cl)cc1N=NC(=O)NNc1cc(Cl)ccc1C"
Completion: > 100 µM

Prompt: Look up TGI with RPMI-8226 leukemia for this compound: "COC(=O)CCC1(CCC(=O)OC)CCCCCCC(CCC(=O)OC)(CCC(=O)OC)C(=O)C1=O"
Completion: > 100 µM

Prompt: Look up TGI with RPMI-8226 leukemia for this compound: "CCOC(=O)c1cn2c(n1)sc1cc(OC)ccc12"
Completion: > 100 µM

Prompt: Look up TGI with RPMI-8226 leukemia for this compound: CCCC1(CN2c3ccccc3Sc3ccc(Cl)cc32)CCN(CC)C1 (centres undefined)
Completion: 5.73 µM

Prompt: Look up TGI with RPMI-8226 leukemia for this compound: "Cc1ccc2nc3n[nH]c(N)c3nc2c1"
Completion: > 100 µM

Prompt: Look up TGI with RPMI-8226 leukemia for this compound: Clc1ccc2c(NCCCCN3OC3c3ccccc3)ccnc2c1 (centres undefined)
Completion: 5.98 µM

Prompt: Look up TGI with RPMI-8226 leukemia for this compound: "N#CCCN(CCC#N)c1ccc(/C=C2\N=C(c3ccccc3)N(c3ccc(C(=O)O)cc3)C2=O)cc1"
Completion: > 100 µM

Prompt: Look up TGI with RPMI-8226 leukemia for this compound: "O=[N+]([O-])c1cc([As](Br)c2ccc(O)c([N+](=O)[O-])c2)ccc1O"
Completion: 1.28 µM

Prompt: Look up TGI with RPMI-8226 leukemia for this compound: O=C1C[C@@]23CCC4(CC2CCC[C@H]3O1)OCCO4 (some centres undefined)
Completion: > 100 µM

Prompt: Look up TGI with RPMI-8226 leukemia for this compound: "COc1ccc2c(O)c(S(=O)(=O)c3ccc(C)cc3)c(=O)oc2c1OC"
Completion: > 100 µM

Prompt: Look up TGI with RPMI-8226 leukemia for this compound: "N#Cc1c(Cl)c2cccnc2n2c1nc1ccccc12"
Completion: 5.67 µM

Prompt: Look up TGI with RPMI-8226 leukemia for this compound: "Clc1ccc(-c2cc(-c3cc4cc(Br)ccc4nc3Cl)on2)cc1"
Completion: 41.7 µM

Prompt: Look up TGI with RPMI-8226 leukemia for this compound: "O=C1NC(Nc2ccccc2)=N/C1=C\c1c(Cl)cccc1Cl"
Completion: > 100 µM

Prompt: Look up TGI with RPMI-8226 leukemia for this compound: "COc1ccc(/C=C2\C[C@H]3[C@@H]4CCC5=C/C(=N/O)CC[C@]5(C)[C@H]4CC[C@]3(C)\C2=N\O)cc1"
Completion: 93.5 µM

Prompt: Look up TGI with RPMI-8226 leukemia for this compound: "COc1cc2c(c3c1c(=O)c1ccccc1n3C)C=CC(C)(C)O2"
Completion: > 100 µM
